Assay: Cell viability of LPS-treated mouse peritoneal macrophages (MTT assay)
Format: cell-based
Settings: 30 µM, mean ± S.E.M. (n = 4), read-out: cell viability (%) in MTT assay (values in parentheses) (converted)
Some molecules, each annotated with its measured viability at 30 µM.
assay_endpoint: viability at 30 µM (%)

{"columns": ["molecule", "assay_endpoint", "value_reported"],
 "data": [
  ["COC(=O)C(OC(C)=O)C1C2(C)CC34OC5(C)OC6(C7CC(=O)OC(c8ccoc8)C7(C)C(OC(C)=O)C(O)C6(O5)C13C)C(OC(=O)C(C)C)C4(O)C2OC(C)=O (stereo not drawn) [compound 15, Carapanolide O]", "viability at 30 µM", 107],
  ["CCC(=O)OC1C2(O)C(OC(C)=O)C3(C)CC24OC2(C)OC15C1CC(=O)OC(c6ccoc6)C1(C)C(OC(C)=O)C(O)C5(O2)C4(C)C3CC(=O)OC (stereo not drawn) [compound 13, Carapanolide M]", "viability at 30 µM", 94.2],
  ["CC(=O)O[C@@H]1C[C@H]2C(C)(C)C(=O)C=C[C@]2(C)[C@H]2CC[C@@]3(C)[C@H](c4ccoc4)C(=O)[C@H]4O[C@]43[C@@]21C", "viability at 30 µM", 81.9]
]}
